Each entry below carries its recorded inhibition.
tested-system: Pancreatic triacylglycerol lipase (Homo sapiens)
assay-procedure: Inhibition of Pancreatic lipase (unknown origin) using 4-methylumbelleallyl oleate as substrate at 5 uM by microplate reader assay
All answers are understood in %, so give the number only.

smiles-text: O=c1cc(-c2ccc(O)cc2)oc2cc(O)cc(O)c12
value-units: %
inhibition: 26.7
//
smiles-text: O=c1cc(-c2ccc(O)c(O)c2)oc2cc(O)cc(O)c12
value-units: %
inhibition: 27.4
//
smiles-text: O=c1cc(-c2ccc(O)c(O)c2)oc2cc(O[C@@H]3O[C@H](CO)[C@@H](O)[C@H](O)[C@H]3O)cc(O)c12
value-units: %
inhibition: 18.1
//
smiles-text: O=c1cc(-c2ccc(O)cc2)oc2cc(O[C@@H]3O[C@H](CO)[C@@H](O)[C@H](O)[C@H]3O)cc(O)c12
value-units: %
inhibition: 13.2

Shifting focus to the compound that follows.
Check the records and state inhibition for "O=C(O)CC(=O)OC[C@H]1O[C@@H](Oc2cc(O)c3c(=O)cc(-c4ccc(O)cc4)oc3c2)[C@H](O)[C@@H](O)[C@@H]1O"
35
